target: endogenous CGRP receptor (Homo sapiens, UniProt O60894+Q16602)
Sequence (Q16602 23-461): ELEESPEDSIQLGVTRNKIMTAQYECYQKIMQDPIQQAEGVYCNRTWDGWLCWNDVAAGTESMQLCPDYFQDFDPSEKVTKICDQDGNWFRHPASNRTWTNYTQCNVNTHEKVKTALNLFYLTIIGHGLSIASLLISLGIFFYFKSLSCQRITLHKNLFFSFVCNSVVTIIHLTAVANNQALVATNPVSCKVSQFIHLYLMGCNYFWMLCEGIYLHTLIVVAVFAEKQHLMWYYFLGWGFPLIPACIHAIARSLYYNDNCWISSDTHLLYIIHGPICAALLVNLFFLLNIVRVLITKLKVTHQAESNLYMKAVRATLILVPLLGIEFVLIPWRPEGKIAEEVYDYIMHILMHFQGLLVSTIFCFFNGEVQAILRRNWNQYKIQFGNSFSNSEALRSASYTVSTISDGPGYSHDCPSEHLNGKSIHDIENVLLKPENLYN
Sequence (O60894 27-148): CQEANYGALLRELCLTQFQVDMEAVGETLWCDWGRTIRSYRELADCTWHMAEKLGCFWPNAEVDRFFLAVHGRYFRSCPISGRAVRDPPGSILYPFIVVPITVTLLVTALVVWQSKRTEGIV
test: CGRP functional antagonism using SK-N-MC-BLA (4C10), β-lactamase transcriptional reporter assay
particulars: SK-N-MC (4C10) cells, inhibition of β-lactamase expression in the presence of 200 pM CGRP
Experimental: Measuring CGRP Functional Antagonism Using SK-N-MC-BLA (4C10): CGRP functional antagonism was characterized in a cell based transcriptional assay using a recombinant SK-N-MC line. […] Single clones were separated using Fluorescent Activated Cell Sorting (FACS) based on CGRP induced β-lactamase activity. β-lactamase activity was measured using a fluorescence energy transfer (FRET) dye, CCF4. […]
pIC50: −log10 of the molar value.
measured-parameter: pIC50

These recorded examples may help you get a feel for the data.
> print(dat)
                                   molecule  readout.value
1  CC(C)CCN1C(=O)C(CC(=O)N2CCC(n3c(=O)[nH]c4ccccc43)CC2)SC1c1ccccc1N(C)C (stereo not shown)         > 6.00
2  CCCCCCCC1SC(CC(=O)N2CCC(N3CCc4ccccc4NC3=O)CC2)C(=O)N1CCC(C)C (stereo not shown)   5.30 to 6.00
3  CC(C)(C)N1CCN(c2c(F)cccc2[C@@H]2S[C@@H](CC(=O)N3CCC(N4CCc5ccccc5NC4=O)CC3)C(=O)N2Cc2ccccc2)CC1         > 6.00

Next molecule, please.
pIC50 reading for CC(C)CC1SC(CC(=O)N2CCC(N3Cc4ccccc4NC3=O)CC2)C(=O)N1CC(F)(F)F (stereo not shown) : 5.30 to 6.00
